Source of measurements: ChEMBL document CHEMBL3988442

# key: entry, value: Percent Effect
biological target: Tyrosyl-tRNA synthetase, putative (Trypanosoma cruzi (strain CL Brener)) (UniProt Q4DSP6); assay: Trypanosoma cruzi tyrosyl tRNA synthetase (TcYRS) _High Tyrosine SOP; type: functional; design: scale not given: in the data most compounds retested in dose-response had high values; conditions: 30 µM
Sequence (Q4DSP6 as listed by the source): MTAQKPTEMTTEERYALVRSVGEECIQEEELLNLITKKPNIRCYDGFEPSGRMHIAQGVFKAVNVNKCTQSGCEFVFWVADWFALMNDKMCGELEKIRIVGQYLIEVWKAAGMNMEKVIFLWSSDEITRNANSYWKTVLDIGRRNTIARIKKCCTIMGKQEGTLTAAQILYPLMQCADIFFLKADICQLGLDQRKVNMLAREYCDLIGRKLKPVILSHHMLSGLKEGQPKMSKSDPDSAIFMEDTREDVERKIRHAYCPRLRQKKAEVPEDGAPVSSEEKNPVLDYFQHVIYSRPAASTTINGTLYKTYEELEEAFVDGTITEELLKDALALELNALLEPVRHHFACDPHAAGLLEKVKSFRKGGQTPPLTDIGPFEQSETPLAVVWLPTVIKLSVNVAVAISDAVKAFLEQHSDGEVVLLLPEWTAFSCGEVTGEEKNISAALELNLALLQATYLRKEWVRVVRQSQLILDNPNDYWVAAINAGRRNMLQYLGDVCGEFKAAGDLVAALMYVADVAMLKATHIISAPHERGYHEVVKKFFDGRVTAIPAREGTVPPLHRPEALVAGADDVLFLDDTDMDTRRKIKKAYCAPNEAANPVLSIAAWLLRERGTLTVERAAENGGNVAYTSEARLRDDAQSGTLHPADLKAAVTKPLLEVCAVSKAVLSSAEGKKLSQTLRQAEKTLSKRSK
I only need the number, in %, no unit after it.

| compound | unit.symbol | Percent Effect |
| --- | --- | --- |
| CCOCC(O)CN1CCN(C(=O)Cc2ccccc2C)CC1 (stereo unspecified) | % | 0.49 |
| c1ccc(N2CCCC3(CCN(Cc4cccs4)C3)C2)nc1 (stereo unspecified) | % | 1.93 |
| COc1cc(CNC(C)Cn2cccn2)cc(OC)c1OC (stereo unspecified) | % | 7.77 |
| Cc1cccc(CO[C@@H]2CC[C@H]3[C@H]2OCCN3Cc2ccsc2)n1 | % | 3.12 |
| CCCN1C(=O)CC2(CCCNC2)C1=O (stereo unspecified) | % | 1.93 |

[in] So what does the record say about Percent Effect for CCn1cc(CN2CCCN(C(=O)Cc3ccc(C)nc3)CC2)cn1 ?
[out] -1.91

[in] Same question, c1cnc(NC[C@@H]2CCC[C@@H]3CN(Cc4cc[nH]n4)C[C@@H]32)nc1 this time
[out] 10.9

---

target: Shiga toxin 2 (Escherichia coli O157:H7) (UniProt P09385+P09386); experiment: E. coli 0.157:H7 Shiga Toxin SOP - stx2 screening assay; type: functional; set-up: scale not given: direction of the effect not stated beside the values; settings: 30 µM
Percent Effect vs -20%: at or above is condition met, below is condition not met.

Example entries and their recorded answers appear below.
| compound | measured.on | discrete.label |
| --- | --- | --- |
| O=C(CCc1ccccc1)N1CCn2cc(CN3CCCC3)nc2C1 | Shiga toxin 2 (Escherichia coli O157:H7) (UniProt P09385+P09386) | condition met |
| Cc1noc(C)c1CN1C[C@@H]2COC[C@H](C(=O)N3CCCCO3)[C@@H]2C1 | Shiga toxin 2 (Escherichia coli O157:H7) (UniProt P09385+P09386) | condition met |
| CC(NC(=O)NCc1ccoc1)c1ccc2c(c1)CCC(=O)N2 (configuration not stated) | Shiga toxin 2 (Escherichia coli O157:H7) (UniProt P09385+P09386) | condition not met |
| CC(=O)NC(C)(C)C(=O)Nc1ncc(Cc2ccc(C)c(F)c2)s1 | Shiga toxin 2 (Escherichia coli O157:H7) (UniProt P09385+P09386) | condition met |
| CC(=O)N1CC(Cc2nccc3ccn(C)c23)C1 | Shiga toxin 2 (Escherichia coli O157:H7) (UniProt P09385+P09386) | condition not met |

Continue with the compound presented below.
[in] # check: Percent Effect of CN(c1ccc(F)c(F)c1)S(=O)(=O)c1cc(C(=O)O)cs1 is greater than or equal to -20%
[out] condition met

---

# key: entry, value: Percent Effect
biological target: Shiga toxin 2 (Escherichia coli O157:H7) (UniProt P09385+P09386); assay: E. coli 0.157:H7 Shiga Toxin SOP - stx2 screening assay; assay type: functional; design: scale not given: direction of the effect not stated beside the values; details: 30 µM
I only need the number, in %, no unit after it.

Some compounds with known Percent Effect results, for comparison:
| compound | measured.on | Percent Effect / % |
| --- | --- | --- |
| COCc1ccccc1CNCc1c(C)nn(C)c1N(C)C | Shiga toxin 2 (Escherichia coli O157:H7) (UniProt P09385+P09386) | 22.6 |
| CNS(=O)(=O)c1cccc(CNc2nccc(C(F)(F)F)n2)c1 | Shiga toxin 2 (Escherichia coli O157:H7) (UniProt P09385+P09386) | 4.67 |
| CC(C)N(Cc1nc2c(cnn2C)c(=O)[nH]1)c1ccccc1 | Shiga toxin 2 (Escherichia coli O157:H7) (UniProt P09385+P09386) | 3.48 |
| CC(NC(=O)Cc1cccs1)c1nnc2n1CCCCC2 (configuration not stated) | Shiga toxin 2 (Escherichia coli O157:H7) (UniProt P09385+P09386) | 5.32 |
| Cc1cc(=O)n(CC(=O)NCC2CCCO2)c(-c2cccc(Cl)c2)n1 (configuration not stated) | Shiga toxin 2 (Escherichia coli O157:H7) (UniProt P09385+P09386) | -13.2 |
| O=C1C[C@H]2[C@H](CCN2Cc2ccccn2)N1CC1CC1 | Shiga toxin 2 (Escherichia coli O157:H7) (UniProt P09385+P09386) | -21.2 |
| CNC(=O)CCc1cc(C)nc(C2CCCN2)c1 (configuration not stated) | Shiga toxin 2 (Escherichia coli O157:H7) (UniProt P09385+P09386) | -4.41 |
| COc1ccc(CC(=O)N2CCCC2Cn2cccn2)cc1F (configuration not stated) | Shiga toxin 2 (Escherichia coli O157:H7) (UniProt P09385+P09386) | 15.1 |

[in] So what does the record say about Percent Effect for CS(=O)(=O)N1CCC(O)(Cn2c(C3CC3)nc3ccccc3c2=O)CC1 ?
[out] 11.1

[in] Same question, CC(NC(=O)N(C)Cc1ccsc1)c1ccc2c(c1)NC(=O)CO2 (configuration not stated) this time
[out] 18.1

[in] Same question, O=C(CN1CCCCC1Cn1cncn1)NC1CCN(C2CC2)CC1 (configuration not stated) this time
[out] -4.41

[in] Same question, CN1CCN(Cc2cnc3n2CCN(Cc2cccs2)C3)CC1 this time
[out] -18.8

---

# key: entry, value: Percent Effect
biological target: Shiga toxin 2 (Escherichia coli O157:H7) (UniProt P09385+P09386); test: E. coli 0.157:H7 Shiga Toxin SOP - stx2 screening assay; format: functional; design: scale not given: direction of the effect not stated beside the values; settings: 30 µM
I only need the number, in %, no unit after it.

| compound | measured.number |
| --- | --- |
| Cc1cnn(C2CCCN(C(=O)c3cn4cccnc4n3)C2)c1 (stereo unspecified) | 8.96 |
| O=C(N1CCCC1)N1CCC2(CCCN(CCOc3ccccc3)C2)C1 (stereo unspecified) | -4.82 |
| Cn1cnc(S(=O)(=O)N2CCN(Cc3ccco3)CC2)c1Cl | 13.8 |
| CS(=O)(=O)NCC1CCCN(C(=O)c2ccc(Cl)o2)C1 (stereo unspecified) | -7.98 |
| Cc1nnn2c1COCC(CNC(=O)c1ccc3[nH]ccc3c1)C2 (stereo unspecified) | -35.3 |

[in] So what does the record say about Percent Effect for CCN1CCN(CC(C)(O)c2cccc(C(F)(F)F)c2)CC1 (stereo unspecified) ?
[out] 6.41

[in] Same question, CCc1ccc(CN2CC[C@H]3C[C@H](c4nnc(C)[nH]4)O[C@@H]3C2)o1 this time
[out] 1.93

---

# key: entry, value: Percent Effect
target: Shiga toxin 2 (Escherichia coli O157:H7) (UniProt P09385+P09386); assay: E. coli 0.157:H7 Shiga Toxin SOP - stx2 screening assay; type: functional; design: scale not given: direction of the effect not stated beside the values; conditions: 30 µM
I only need the number, in %, no unit after it.

Some compounds with known Percent Effect results, for comparison:
| compound | measured.on | unit.symbol | Percent Effect |
| --- | --- | --- | --- |
| CC(C)c1nccn1-c1cccc(C2CCCN2S(=O)(=O)N(C)C)n1 (centres undefined) | Shiga toxin 2 (Escherichia coli O157:H7) (UniProt P09385+P09386) | % | 0.999 |
| COc1ccc(CN2CCC3(CC(=O)N(c4cncnc4)C3)C2)cc1 (centres undefined) | Shiga toxin 2 (Escherichia coli O157:H7) (UniProt P09385+P09386) | % | -11.8 |
| O=C(Nc1cc(C(F)(F)F)c[nH]c1=O)c1ccco1 | Shiga toxin 2 (Escherichia coli O157:H7) (UniProt P09385+P09386) | % | 5.24 |
| CCc1nc(CNC(C)Cn2cccn2)cs1 (centres undefined) | Shiga toxin 2 (Escherichia coli O157:H7) (UniProt P09385+P09386) | % | 9.22 |
| Cc1nnc(N2CC[C@H](OCC3CC3)[C@@H](Cc3ccccc3)C2)s1 | Shiga toxin 2 (Escherichia coli O157:H7) (UniProt P09385+P09386) | % | -15.5 |
| CC(=O)NCC1CCN(CC2CCOc3ccccc3C2)CC1 (centres undefined) | Shiga toxin 2 (Escherichia coli O157:H7) (UniProt P09385+P09386) | % | 1.04 |

[in] Hello, I am looking for reported Percent Effect with Shiga toxin 2 (Escherichia coli O157:H7) (UniProt P09385+P09386) for Cc1ccc(CNCc2ccc(-n3nc(C)cc3C)nc2)cc1 . Could you help?
[out] 22.8

[in] Same question, Cc1ccc(CN2CCCn3c(nc(CN4CCCC4)cc3=O)C2)s1 this time
[out] 7.63

[in] Same question, Cc1ccc(C(=O)N2CCC3(CCN(C(=O)c4cccnc4)C3)CC2)o1 this time
[out] -10.6

[in] Same question, CC1CN(CC(=O)Nc2cccnc2)CCN1c1nccs1 (centres undefined) this time
[out] 7.04
